Kindly state inhibition for each of the entries shown.
procedure_details: M. tuberculosis H37Rv growth inhibitors, H37Rv strain (AID 1626);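 also: bacteria incubated seven days before Alamar blue readout; 0% = bacteria only wells and 100% = bacteria with antibiotic wells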
condition_details: stronger effect = higher value, concentration not given here
Hit rate of the full screen: of about 220,000 compounds, about 2,000 (0.91%) were called active. Another 2% or so got no clear call; they are omitted. The list is a sample of the results. Results with a measured potency or affinity are listed apart.
Answers are plain numbers, in %.

[[record]]
compound = "c1ccc2c(-c3cn4ccccc4n3)c[nH]c2c1"
assay_result = -5.8

[[record]]
compound = "CCOC(=O)c1ccc(NC(=O)c2nc[nH]c2C(=O)NC)cc1"
assay_result = -7.95

[[record]]
compound = "Cc1ccc2c(c1)c1ncnc(N3CCN(c4ccccc4)CC3)c1n2C"
assay_result = 0.76

[[record]]
compound = "O=C(/C=C/c1ccc(Br)cc1)NC(=O)c1ccccc1O"
assay_result = 5.02

[[record]]
compound = "Cc1nn(CC(=O)Nc2ccccn2)c(C)c1[N+](=O)[O-]"
assay_result = -1.31


Go through the items and report each one's inhibition.
1. O=C(C[n+]1cc(-c2ccccc2)n2c1CCC2)c1cccs1
2. Cc1ccc(NC(=O)c2nc[nH]c2C(=O)Nc2ccc(C)cc2)cc1
3. O=C(C[n+]1cc(-c2ccc(F)cc2)n2c1CCC2)OCc1ccccc1
4. Cc1cc(C(=O)N2CCCC(C(=O)c3cccc(C(F)(F)F)c3)C2)nc(C)n1 (stereo not given)
5. CC1=CC2=NC(=O)/C(=C\c3cccn3CCOc3cc(C)ccc3C)C(=N)N2O1
6. O=C(/C=C/c1ccccc1)NC(=O)c1ccccc1O
7. O=C(Cn1nnc2ccccc21)OCc1ccccc1

1: -2.31; 2: -0.81; 3: -9.6; 4: -11; 5: 12.3; 6: -10.8; 7: 3.11

Go through the items and report each one's inhibition.
1. NNc1nc2c(F)cccc2s1
2. COC(=O)C1=C(C(=O)OC)[C@@H]2Nc3ccccc3[C@@]23C[C@@H](C(=O)OC)N(C(=O)c2ccco2)C3=N1
3. O=C(C[n+]1cc(-c2ccccc2)n2c1CCCCC2)c1ccc(Cl)cc1
4. CCOC(=O)c1c(NC(=O)c2nn(CC)cc2Br)c(C#N)cn1-c1ccccc1
5. Cc1cc(C(=O)Nc2cccnc2Cl)on1

1: 8.41; 2: -1.72; 3: 18.6; 4: -6; 5: -0.41

Go through the items and report each one's inhibition.
1. CCCCC(=O)OCC(=O)Nc1ccc(C)c(F)c1
2. CN(C)c1ccc(CC(=O)c2nc3ccccc3s2)cc1

1: 9.33; 2: -5.99

====

Kindly state inhibition for each of the entries shown.
procedure_details: M. tuberculosis H37Rv growth inhibitors, H37Rv strain (AID 1626);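 also: bacteria incubated seven days before Alamar blue readout; 0% = bacteria only wells and 100% = bacteria with antibiotic wells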
condition_details: stronger effect = higher value, concentration not given here
Hit rate of the full screen: of about 220,000 compounds, about 2,000 (0.91%) were called active. Another 2% or so got no clear call; they are omitted. Only a sample is shown. Measured potencies and affinities stand elsewhere.
One number for each entry, in %.

[[record]]
compound = "CC1CC(C)CN(C(=O)COC(=O)c2ccc[nH]c2=O)C1 (stereo not drawn)"
property_measured = "inhibition"
assay_result = -10


Go through the items and report each one's inhibition.
1. COc1ccc(-c2[nH]ncc2CNCCn2cccn2)c(F)c1
2. CCOC(=O)c1oc2cc(OC(C)=O)ccc2c(=O)c1-c1ccc(OC)c(OC)c1
3. CC(=O)Oc1ccc2c(=O)c(-c3ccccc3)coc2c1
4. CC(=O)OCC(=O)c1c[nH]c2ccccc12
5. CCOC(=O)c1c(C)[nH]c(C)c1C(=O)COC(=O)c1cc2ccccc2cc1O
6. CC(=O)c1ccc(NC(=O)Oc2ccccc2)cc1
7. COc1ccc(C(=O)N/N=C/c2sc(=O)n(Cc3cccc(C(=O)O)c3)c2Cl)cc1
8. O=C(CCOc1ccccc1)Nc1ccccc1

-7
-4.14
71.2
-1.25
-1.14
-7.64
-6.32
7.71

Go through the items and report each one's inhibition.
1. O=C(OCCN1C(=O)c2ccccc2C1=O)C1CCN(S(=O)(=O)c2cccs2)CC1
2. COc1cccc(C(=O)OCC(=O)c2c[nH]c3ccccc23)c1O
3. CCN(CC)C(=O)Oc1ccc2c(=O)c(-c3ccccc3)coc2c1
4. Cc1oc2cc(OCC(=O)O)ccc2c(=O)c1Oc1ccccc1
5. CCC1CCc2c(sc(NC(=O)C3c4ccccc4Oc4ccccc43)c2C(N)=O)C1 (stereo not drawn)
6. COc1ccc(NC(=O)Nc2sc(=S)n(C)c2C)cc1
7. COC(=O)c1ccc(NC(=O)NS(=O)(=O)c2ccc(C)cc2)cc1

1: -5.04; 2: 7.28; 3: 8.19; 4: -10.7; 5: 5.29; 6: -3.18; 7: 55.9
